Origin of values: patent US7250521B2

test: logP determination by HPLC on reverse-phase column (C 18), EEC directive 79/831 Annex V.A8; assay type: physicochemical; conditions: reverse-phase HPLC column (C 18), pH 2.3, acidic range, pH 2.3; 0.1% aqueous phosphoric acid/acetonitrile gradient; 43° C.; values marked a)
readout.label: chromatographic logP
Format: numeric value only, no unit, no commentary.

Prompt: Please look up its chromatographic logP: Cc1ccc(C2CCC(=O)N2C(=O)OC(C)(C)C)c(C)c1 (stereo not shown)
Completion: 3.2

Prompt: Please look up its chromatographic logP: Fc1ccc(C2CCC(c3ccccc3)=N2)cc1 (stereo not shown)
Completion: 1.12

Prompt: Please look up its chromatographic logP: Cc1ccc(C2CCC(c3ccccc3Cl)=N2)cc1 (stereo not shown)
Completion: 1.96

Prompt: Please look up its chromatographic logP: Brc1ccc(C2CCC(c3ccccc3Br)=N2)cc1 (stereo not shown)
Completion: 3.11
